For each record, write down the corresponding Percent inhibition of neutrophil binding to GMP-140.
Target: GMP-140 (Homo sapiens)
Construct: from tissue; host or cells: human platelets (outdated platelet packs from a blood bank)
Sequence (P16109 42-830): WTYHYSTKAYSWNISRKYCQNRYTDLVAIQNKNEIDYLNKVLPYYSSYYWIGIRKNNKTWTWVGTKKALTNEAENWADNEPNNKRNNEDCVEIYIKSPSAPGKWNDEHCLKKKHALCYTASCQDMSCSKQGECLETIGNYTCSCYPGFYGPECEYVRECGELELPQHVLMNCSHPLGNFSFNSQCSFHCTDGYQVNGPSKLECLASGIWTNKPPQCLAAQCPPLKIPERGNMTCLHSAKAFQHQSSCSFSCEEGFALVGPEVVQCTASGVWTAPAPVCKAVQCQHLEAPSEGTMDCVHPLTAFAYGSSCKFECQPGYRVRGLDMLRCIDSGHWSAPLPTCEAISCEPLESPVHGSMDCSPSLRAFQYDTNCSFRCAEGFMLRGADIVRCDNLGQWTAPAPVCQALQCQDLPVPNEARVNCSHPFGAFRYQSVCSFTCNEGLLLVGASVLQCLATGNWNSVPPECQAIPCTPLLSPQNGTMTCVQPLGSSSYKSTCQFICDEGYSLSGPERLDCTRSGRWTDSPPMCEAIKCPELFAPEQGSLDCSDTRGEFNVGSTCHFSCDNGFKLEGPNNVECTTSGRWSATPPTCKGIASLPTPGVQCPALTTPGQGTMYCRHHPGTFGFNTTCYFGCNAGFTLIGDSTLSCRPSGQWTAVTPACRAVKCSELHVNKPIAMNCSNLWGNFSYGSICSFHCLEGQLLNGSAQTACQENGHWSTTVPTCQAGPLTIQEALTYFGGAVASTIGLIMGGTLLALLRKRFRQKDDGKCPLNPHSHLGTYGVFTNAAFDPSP
Experiment: Inhibition of neutrophil binding to GMP-140 coated wells
Type: cell-based
Details: peptide concentration 0.1 mM; human neutrophils, immobilized GMP-140
No end group written: not given here.
Numbers only, in %.

Study these solved cases before continuing.
{"Substance": "Arg-Glu-Asn-Asn-Lys-Thr-Trp-Thr-Trp-Val-NH2 (RENNKTWTWV-NH2)", "Observed measurement": 34}
{"Substance": "RKNNKTWTWV (Synthetic inhibitory peptide)", "Observed measurement": 14}

Here is another substance to look at.
Cys-Arg-Lys-Asn-Asn-Lys-Thr-Trp-Thr-Trp-Val-NH2 (CRKNNKTWTWV-NH2) yielded Percent inhibition of neutrophil binding to GMP-140 of 87
